Data credit: PubChem BioAssay AID463173

System: DeltatarO mutant
Test: S. aureus survival, RN4220 and DeltatarO strains – OD600, teichoic acid synthesis inhibitors, primary screen (AID 463173)
Details: S. aureus RN4220 wild type/DeltatarO growth, OD600, 18 h, screened at 18.75 µg/mL (by protocol)
About 4,300 (8.3%) of roughly 52,000 compounds were called active. No stated cut-off is given here; in the data, active means survival mostly below about 52% (no sharp cut-off); inactive means mostly above about 56%. The sample as a whole holds a higher share of actives than the screen did.
Bench note: report the call from active, inactive

Enquiry: Call for entry "COc1cccc(-c2nnc(SCC(=O)N3c4ccccc4Sc4ccccc43)o2)c1" :
Return: active

Enquiry: Call for entry "CCCCN1CCc2nc(Nc3ccc(OC)cc3OC)ncc2C1" :
Return: inactive

Enquiry: Call for entry "COc1cccc(-n2c(=O)c3c(C)c(C(=O)N(C)C)sc3n(Cc3cccc(C)c3)c2=O)c1" :
Return: active

Enquiry: Call for entry "COc1ccc(-c2nc(C)c(CCNC(=O)c3cccc(C)c3)s2)cc1OC" :
Return: inactive

Enquiry: Call for entry "CCCOc1ccc(CNC(=O)Cn2ncn3c(cc4sc(CC)cc43)c2=O)cc1" :
Return: inactive

Enquiry: Call for entry COc1ccc(CC(=O)N2N=C(c3ccncc3)CC2(O)C(F)(F)F)cc1 (configuration not stated) :
Return: inactive

Enquiry: Call for entry "O=C(CSc1nnc(-c2cccc(Cl)c2)o1)N1CCc2ccccc21" :
Return: inactive

Enquiry: Call for entry "CC(C)COC(=O)Cc1c(O)c2ccccc2[nH]c1=O" :
Return: active
